Every entry's value here was drawn from paper PMC6851181.

- experiment: Mouse IF pharmacokinetic study: plasma IF by HPLC, alone or after GFJ or naringin pre-administration
- Format: in vivo, ICR male mice
- run_conditions: male, ICR, mouse, plasma, po, 300 mg/kg, naringin 250 mg/kg ig 1 h before IF 300 mg/kg ig, mouse plasma; read-out: Tmax (converted)
attribute_measured: Tmax (min)
Numbers only, in min.

Tmax reported for this compound O=P1(NCCCl)OCCCN1CCCl (stereo not shown) [IF, ifosfamide] : 5

----------
- experiment: Mouse IF pharmacokinetic study: plasma IF by HPLC, alone or after GFJ or naringin pre-administration
- Type: in vivo, ICR male mice
- run_conditions: male, ICR, mouse, plasma, po, 300 mg/kg, GFJ 20.8 µL/g ig 1 h before IF 300 mg/kg ig, mouse plasma
attribute_measured: AUC(0-inf) (ng·h/mL)
Numbers only, in ng·h/mL.

Lab note: O=P1(NCCCl)OCCCN1CCCl (stereo not shown) [IF, ifosfamide] gave AUC(0-inf) of 34200

----------
- experiment: Mouse IF pharmacokinetic study: plasma IF by HPLC, alone or after GFJ or naringin pre-administration
- Format: in vivo, ICR male mice
- run_conditions: male, ICR, mouse, plasma, po, 300 mg/kg, naringin 250 mg/kg ig 1 h before IF 300 mg/kg ig, mouse plasma
attribute_measured: half-life (min)
One number for each entry, in min.

So for O=P1(NCCCl)OCCCN1CCCl (stereo not shown) [IF, ifosfamide] , the logged half-life turned out to be 26.8

----------
- experiment: Mouse IF pharmacokinetic study: plasma IF by HPLC, alone or after GFJ or naringin pre-administration
- Format: in vivo, ICR male mice
- run_conditions: male, ICR, mouse, plasma, po, 300 mg/kg, IF only, 300 mg/kg ig, mouse plasma; read-out: Tmax (converted)
attribute_measured: Tmax (min)
Answers are plain numbers, in min.

The recorded Tmax for O=P1(NCCCl)OCCCN1CCCl (stereo not shown) [IF, ifosfamide] is 10.8

----------
- experiment: Mouse IF pharmacokinetic study: plasma IF by HPLC, alone or after GFJ or naringin pre-administration
- Type: in vivo, ICR male mice
- run_conditions: male, ICR, mouse, plasma, po, naringin 250 mg/kg ig 1 h before IF 300 mg/kg ig, mouse plasma; read-out: Cmax
attribute_measured: Cmax (µg/mL)
Give bare numbers, in µg/mL.

The reported Cmax of the molecule O=P1(NCCCl)OCCCN1CCCl (stereo not shown) [IF, ifosfamide] was 64.1

----------
- experiment: Mouse IF pharmacokinetic study: plasma IF by HPLC, alone or after GFJ or naringin pre-administration
- Assay type: in vivo, ICR male mice
- run_conditions: male, ICR, mouse, plasma, po, 300 mg/kg, naringin 250 mg/kg ig 1 h before IF 300 mg/kg ig, mouse plasma
attribute_measured: AUC(0-inf) (ng·h/mL)
Numbers only, in ng·h/mL.

Form: molecule = O=P1(NCCCl)OCCCN1CCCl (stereo not shown) [IF, ifosfamide] ; AUC(0-inf) = 37400

----------
- experiment: Mouse IF pharmacokinetic study: plasma IF by HPLC, alone or after GFJ or naringin pre-administration
- Format: in vivo, ICR male mice
- run_conditions: male, ICR, mouse, plasma, po, 300 mg/kg, IF only, 300 mg/kg ig, mouse plasma
attribute_measured: half-life (min)
One number for each entry, in min.

half-life for O=P1(NCCCl)OCCCN1CCCl (stereo not shown) [IF, ifosfamide] is 23.5
